molecular target: human melanocortin 1 receptor (human, UniProt Q01726 1-317); experiment: cell-based or functional assay
Sequence (Q01726 whole entry): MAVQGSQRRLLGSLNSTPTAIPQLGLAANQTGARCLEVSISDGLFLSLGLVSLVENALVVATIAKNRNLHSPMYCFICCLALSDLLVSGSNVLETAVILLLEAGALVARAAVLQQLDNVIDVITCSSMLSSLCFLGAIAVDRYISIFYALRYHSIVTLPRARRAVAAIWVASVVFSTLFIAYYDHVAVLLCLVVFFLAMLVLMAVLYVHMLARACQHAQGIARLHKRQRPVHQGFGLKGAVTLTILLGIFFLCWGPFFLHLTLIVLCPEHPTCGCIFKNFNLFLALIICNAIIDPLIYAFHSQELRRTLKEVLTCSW
Positions of bridges follow the written chain, without caps; N, C: chain ends. Non-standard residues stand in square brackets, D forms with d. Pro(cis-4-guanidino) = NC(N)=N[C@@H]1CN[C@H](C(=O)O)C1; Thz = O=C(O)[C@@H]1CSCN1
experimental.endpoint: MC1R cAMP EC50

State the recorded MC1R cAMP EC50 for this entry: cyclo(C[Thz]H[dF]HWC[Thz]H[dF]HW) (disulfide 1-7; SMILES O=C1N[C@H]2CSSC[C@H](NC(=O)[C@H](Cc3c[nH]c4ccccc34)NC(=O)[C@H](Cc3c[nH]cn3)NC(=O)[C@@H](Cc3ccccc3)NC(=O)[C@H](Cc3c[nH]cn3)NC(=O)[C@@H]3CSCN3C2=O)C(=O)N2CSC[C@H]2C(=O)N[C@@H](Cc2c[nH]cn2)C(=O)N[C@H](Cc2ccccc2)C(=O)N[C@@H](Cc2c[nH]cn2)C(=O)N[C@H]1Cc1c[nH]c2ccccc12, also called c[c[Cys-THAZ-His-D-Phe-His-Trp-Cys]-THAZ-His-D-Phe-His-Trp]) [Chem. 91] > 10 nM

cyclo(CAH[dF][Pro(cis-4-guanidino)]WCAH[dF][Pro(cis-4-guanidino)]W) (disulfide 1-7; SMILES C[C@@H]1NC(=O)[C@@H]2CSSC[C@H](NC(=O)[C@H](Cc3c[nH]c4ccccc34)NC(=O)[C@@H]3C[C@H](N=C(N)N)CN3C(=O)[C@@H](Cc3ccccc3)NC(=O)[C@H](Cc3c[nH]cn3)NC1=O)C(=O)N[C@@H](C)C(=O)N[C@@H](Cc1c[nH]cn1)C(=O)N[C@H](Cc1ccccc1)C(=O)N1C[C@@H](N=C(N)N)C[C@H]1C(=O)N[C@@H](Cc1c[nH]c3ccccc13)C(=O)N2, also called c[c[Cys-Ala-His-D-Phe-4cis-GuaPro-Trp-Cys]-Ala-His-D-Phe-4cis-GuaPro-Trp]) [Chem. 29] , same question. > 100 nM
